- Test system: Human immunodeficiency virus 1
- PROTOCOL_NOTES: Inhibition of HIV1 Rev nuclear export in Saccharomyces pombe expressing GST-NLS-GFP-RevNES fused protein assessed as cellular distribution after 3 hrs by fluorescence microscopy
ATTRIBUTE_MEASURED: MIC (µM)

Worked examples, 2 molecules total:
>>> number("C=C[C@H](OC(C)=O)c1ccc(OC(C)=O)cc1 [1'-ACETOXYCHAVICOL ACETATE]")
4.3
>>> number("C=C[C@H](OC(=O)C(C)C)c1ccc(OC(C)=O)cc1")
19

A. C=C[C@H](OC(C)=O)c1ccc(OC(C)=O)c(F)c1
B. C=C[C@H](OC(=O)OCCC)c1ccc(OC(=O)OCCC)cc1
C. C=C[C@H](OC(=O)CCC)c1ccc(OC(C)=O)cc1
Incoming: Could you please sort these 3 entries by MIC from high to low? Use the labels to give the requested order.
Outgoing: C, B, A

A. C=C[C@H](OC(C)=O)c1ccc(OC(C)=O)c(F)c1F
B. C=C[C@H](OC(=O)OCCC)c1ccc(OC(C)=O)cc1
C. C=C[C@H](OC(C)=O)c1ccc(OC(C)=O)c(Cl)c1
Incoming: Could you please sort these 3 entries by MIC from high to low? Use the labels to give the requested order.
Outgoing: B, C, A
(B: 26 µM, C: 2.2 µM, A: 1.4 µM)

a. C=C[C@H](OC(C)=O)c1ccc(OC(C)=O)c(Br)c1
b. C=C[C@H](OC(=O)OCC)c1ccc(OC(=O)OCC)cc1
Incoming: For the two items a and b , which reports the higher MIC value? Bench note: the answer is the label of the chosen record.
Outgoing: b
(b: 25 µM, a: 1.7 µM)

---

- System: Human immunodeficiency virus 1
- PROTOCOL_NOTES: Inhibition of HIV1 Rev nuclear export in Saccharomyces pombe expressing GST-NLS-GFP-RevNES fused protein assessed as cellular distribution after 3 hrs by fluorescence microscopy
ATTRIBUTE_MEASURED: MIC

Worked examples, 5 molecules total:
>>> result("C=C[C@H](OC(=O)OC(C)(C)C)c1ccc(OC(=O)OC(C)(C)C)cc1")
"> 50 µM"
>>> result("C=C[C@H](OC(=O)NCC)c1ccc(OC(=O)NCC)cc1")
"> 50 µM"
>>> result("C=C[C@H](OC(=O)NCCC)c1ccc(OC(=O)NCCC)cc1")
"> 50 µM"
>>> result("C=C[C@H](OC(=O)OC)c1ccc(OC(=O)OC)cc1")
"25 µM"
>>> result("C=C[C@H](OC(=O)NC)c1ccc(OC(=O)NC)cc1")
"> 50 µM"

Incoming: Entry C=C[C@H](OC(=O)NC(C)C)c1ccc(OC(=O)NC(C)C)cc1 needs its MIC filled in; supply it.
Outgoing: > 50 µM

Incoming: Entry C=C[C@H](OC(=O)OC(C)C)c1ccc(OC(=O)OC(C)C)cc1 needs its MIC filled in; supply it.
Outgoing: > 50 µM

Incoming: Entry C=C[C@H](OC(=O)NC(C)(C)C)c1ccc(OC(=O)NC(C)(C)C)cc1 needs its MIC filled in; supply it.
Outgoing: > 50 µM

Incoming: Entry C=C[C@H](OC(=O)OC(C)C)c1ccc(OC(C)=O)cc1 needs its MIC filled in; supply it.
Outgoing: > 50 µM
